system_tested: FRMPD2_3, Q68DX3
Sequence (Q68DX3 1073-1166): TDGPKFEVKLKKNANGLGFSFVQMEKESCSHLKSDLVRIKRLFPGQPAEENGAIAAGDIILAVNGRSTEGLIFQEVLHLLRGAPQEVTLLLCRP
assay_remarks: holdup assay
Parameters: key: below the threshold = too weak to quantify, mostly under pKd 3.1 to 4
setup_conditions: plain residues with an end cap or a label only (N-terminal biotin on a linker: ado-ado)

[
  {
    "binder": "NTLNRKTTPV [CACNG8, Q8WXS5]",
    "pKd": "below the threshold"
  },
  {
    "binder": "NVYGIESVKI [GRIA2, P42262]",
    "pKd": 3.49
  },
  {
    "binder": "SLNANEVEWF [RNF130, Q86XS8]",
    "pKd": 3.49
  },
  {
    "binder": "NISYRRESAI [KCNJ4, P48050]",
    "pKd": "below the threshold"
  },
  {
    "binder": "GTGYDRKDYV [CLDN3, O15551]",
    "pKd": "below the threshold"
  },
  {
    "binder": "NTANRRTTPV [CACNG2, Q9Y698]",
    "pKd": "below the threshold"
  },
  {
    "binder": "GIKKITSTAL [RPS6KA3, P51812]",
    "pKd": 3.5
  },
  {
    "binder": "RFQQRMQTHV [KIRREL1, Q96J84]",
    "pKd": "below the threshold"
  }
]
